# Type: cell-based
# measurementConditions: Cell viability (%)
Bridge positions count the residues as written; N and C are the ends. Square brackets hold non-standard residues; d marks the D form. Peptide text beside a SMILES is read from it. Pro(cis-4-guanidino) = NC(N)=N[C@@H]1CN[C@H](C(=O)O)C1; Phe(4-guanidino) = N=C(N)Nc1ccc(C[C@H](N)C(=O)O)cc1
endpointName: viability at 24 h, 3.12 µM (%)
Answers are plain numbers, in %.

CC[C@H](C)[C@H](NC(=O)[C@H](CCCNC(=N)N)NC(=O)[C@H]1CCCCNC(=N)NCCCC[C@H](NC(=O)[C@H](Cc2ccccc2)NC(=O)[C@H](Cc2c[nH]c3ccccc23)NC(=O)[C@@H]2CCCN2C(=O)[C@@H](NC(=O)[C@@H](N)Cc2ccccc2)C(C)C)C(=O)N[C@@H](CCCCN)C(=O)N[C@@H](Cc2ccccc2)C(=O)N[C@H](CC(C)C)C(=O)N1)C(=O)N[C@@H](CC(C)C)C(N)=O [Peptide 12, FVPWF{KKFlk}RIL]    93
CC[C@H](C)[C@H](NC(=O)[C@H](CCCNC(=N)N)NC(=O)[C@H]1CCC(=O)NCCCC[C@H](NC(=O)[C@H](Cc2ccccc2)NC(=O)[C@H](Cc2c[nH]c3ccccc23)NC(=O)[C@@H]2CCCN2C(=O)[C@@H](NC(=O)[C@@H](N)Cc2ccc(NC(=N)N)cc2)C(C)C)C(=O)N[C@@H](CCCCN)C(=O)N[C@@H](Cc2ccccc2)C(=O)N[C@H](CC(C)C)C(=O)N1)C(=O)N[C@@H](CC(C)C)C(N)=O [Peptide 6, (p-guanidino)FVPWF[KKFle]RIL] (H-[Phe(4-guanidino)]VPWFKKF[dL][dE]RIL-NH2; lactam 6-10)    104

Now for another entry.
The measured viability at 24 h, 3.12 µM associated with CC[C@H](C)[C@H](NC(=O)[C@H](CCCNC(=N)N)NC(=O)[C@H]1CCC(=O)NCCCC[C@H](NC(=O)[C@H](Cc2ccccc2)NC(=O)[C@H](Cc2c[nH]c3ccccc23)NC(=O)[C@@H]2C[C@H](NC(=N)N)CN2C(=O)[C@@H](NC(=O)[C@@H](N)Cc2ccccc2)C(C)C)C(=O)N[C@@H](CCCCN)C(=O)N[C@@H](Cc2ccccc2)C(=O)N[C@H](CC(C)C)C(=O)N1)C(=O)N[C@@H](CC(C)C)C(N)=O [Peptide 7, FV(4-guanidino)PWF[KKFle]RIL] (H-FV[Pro(cis-4-guanidino)]WFKKF[dL][dE]RIL-NH2; lactam 6-10) reads 111

* * *

# Assay type: cell-based, human
# measurementConditions: human, Cell viability (%)
# Protocol: For the evaluation of peptides’ cytotoxicity, the human immortalized keratinocytes (HaCaT cells), purchased from AddexBio (San Diego, CA, USA), and BEAS-2B were used. […] The purple formazan crystals were dissolved using acidified 2-propanol and a microplate reader (Infinite M200; Tecan, Salzburg, Austria) was used to measure the absorbance of each well at 570 nm. […]
Bridge positions count the residues as written; N and C are the ends. Square brackets hold non-standard residues; d marks the D form. Peptide text beside a SMILES is read from it. Pro(cis-4-guanidino) = NC(N)=N[C@@H]1CN[C@H](C(=O)O)C1; Phe(4-guanidino) = N=C(N)Nc1ccc(C[C@H](N)C(=O)O)cc1
Answer each item with its documented viability at 24 h, 100 µM.
One number for each entry, in %.

// worked examples, viability at 24 h, 100 µM included
CC[C@H](C)[C@H](NC(=O)[C@H](CCCNC(=N)N)NC(=O)[C@H]1CCCCNC(=N)NCCCC[C@H](NC(=O)[C@H](Cc2ccccc2)NC(=O)[C@H](Cc2c[nH]c3ccccc23)NC(=O)[C@@H]2CCCN2C(=O)[C@@H](NC(=O)[C@@H](N)Cc2ccccc2)C(C)C)C(=O)N[C@@H](CCCCN)C(=O)N[C@@H](Cc2ccccc2)C(=O)N[C@H](CC(C)C)C(=O)N1)C(=O)N[C@@H](CC(C)C)C(N)=O [Peptide 12, FVPWF{KKFlk}RIL]    3
CC[C@H](C)[C@H](NC(=O)[C@H](CCCNC(=N)N)NC(=O)[C@H]1CCC(=O)NCCCC[C@H](NC(=O)[C@H](Cc2ccccc2)NC(=O)[C@H](Cc2c[nH]c3ccccc23)NC(=O)[C@@H]2CCCN2C(=O)[C@@H](NC(=O)[C@@H](N)Cc2ccccc2)C(C)C)C(=O)N[C@@H](CCCCN)C(=O)N[C@@H](Cc2ccc(NC(=N)N)cc2)C(=O)N[C@H](CC(C)C)C(=O)N1)C(=O)N[C@@H](CC(C)C)C(N)=O [Peptide 10, FVPWF[KK(p-guanidino)Fle]RIL] (H-FVPWFKK[Phe(4-guanidino)][dL][dE]RIL-NH2; lactam 6-10)    95

The measured viability at 24 h, 100 µM associated with CC[C@H](C)[C@H](NC(=O)[C@H](CCCNC(=N)N)NC(=O)[C@H]1CCC(=O)NCCCC[C@H](NC(=O)[C@H](Cc2ccccc2)NC(=O)[C@H](Cc2c[nH]c3ccccc23)NC(=O)[C@@H]2C[C@H](NC(=N)N)CN2C(=O)[C@@H](NC(=O)[C@@H](N)Cc2ccccc2)C(C)C)C(=O)N[C@@H](CCCCN)C(=O)N[C@@H](Cc2ccccc2)C(=O)N[C@H](CC(C)C)C(=O)N1)C(=O)N[C@@H](CC(C)C)C(N)=O [Peptide 7, FV(4-guanidino)PWF[KKFle]RIL] (H-FV[Pro(cis-4-guanidino)]WFKKF[dL][dE]RIL-NH2; lactam 6-10) reads 2

* * *

# Format: cell-based, human
# measurementConditions: human, Cell viability (%)
Bridge positions count the residues as written; N and C are the ends. Square brackets hold non-standard residues; d marks the D form. Peptide text beside a SMILES is read from it. * marks the point of attachment. Propanoyl(3-guanidino) = N=C(N)NCCC(=O)*; X1 = N=C(N)N[C@@H](Cc1ccccc1)C(=O)*
Answer each item with its documented viability at 24 h, 50 µM.
Answers are plain numbers, in %.

// worked examples, viability at 24 h, 50 µM included
CC[C@H](C)[C@H](NC(=O)[C@H](CCCNC(=N)N)NC(=O)[C@H]1CCC(=O)NCCCC[C@H](NC(=O)[C@H](Cc2ccccc2)NC(=O)[C@H](Cc2c[nH]c3ccccc23)NC(=O)[C@@H]2CCCN2C(=O)[C@@H](NC(=O)[C@H](Cc2ccccc2)NC(=O)CCNC(=N)N)C(C)C)C(=O)N[C@@H](CCCCN)C(=O)N[C@@H](Cc2ccccc2)C(=O)N[C@H](CC(C)C)C(=O)N1)C(=O)N[C@@H](CC(C)C)C(N)=O [Peptide 4, guanidino-βAla-FVPWF[KKFle]RIL] ({Propanoyl(3-guanidino)}-FVPWFKKF[dL][dE]RIL-NH2; lactam 6-10)    0
CC[C@H](C)[C@H](NC(=O)[C@H](CCCNC(=N)N)NC(=O)[C@H]1CCC(=O)NCCCC[C@H](NC(=O)[C@H](Cc2ccccc2)NC(=O)[C@H](Cc2c[nH]c3ccccc23)NC(=O)[C@@H]2CCCN2C(=O)[C@@H](NC(=O)[C@@H](N)Cc2ccccc2)C(C)C)C(=O)N[C@@H](CCCNC(=N)N)C(=O)N[C@@H](Cc2ccccc2)C(=O)N[C@H](CC(C)C)C(=O)N1)C(=O)N[C@@H](CC(C)C)C(N)=O [Peptide 9, FVPWF[KRFle]RIL] (H-FVPWFKRF[dL][dE]RIL-NH2; lactam 6-10)    82
CC[C@H](C)[C@H](NC(=O)[C@H](CCCNC(=N)N)NC(=O)[C@@H]1CCCNC(=N)NCCC[C@H](NC(=O)[C@H](Cc2ccccc2)NC(=O)[C@H](Cc2c[nH]c3ccccc23)NC(=O)[C@@H]2CCCN2C(=O)[C@@H](NC(=O)[C@@H](N)Cc2ccccc2)C(C)C)C(=O)N[C@@H](CCCCN)C(=O)N[C@@H](Cc2ccccc2)C(=O)N[C@H](CC(C)C)C(=O)N1)C(=O)N[C@@H](CC(C)C)C(N)=O [Peptide 13, FVPWF{OrnKFlOrn}RIL]    2
CC[C@H](C)[C@H](NC(=O)[C@H](CCCNC(=N)N)NC(=O)[C@H]1CCC(=O)NCCCC[C@H](NC(=O)[C@H](Cc2ccccc2)NC(=O)[C@H](Cc2c[nH]c3ccccc23)NC(=O)[C@@H]2CCCN2C(=O)[C@@H](NC(=O)[C@H](Cc2ccccc2)NC(=N)N)C(C)C)C(=O)N[C@@H](CCCCN)C(=O)N[C@@H](Cc2ccccc2)C(=O)N[C@H](CC(C)C)C(=O)N1)C(=O)N[C@@H](CC(C)C)C(N)=O [Peptide 3, guanidino-FVPWF[KKFle]RIL] (X1-VPWFKKF[dL][dE]RIL-NH2; lactam 5-9)    29
CC[C@H](C)[C@H](NC(=O)[C@H](CCCNC(=N)N)NC(=O)[C@@H]1CCCCNC(=N)NCCCC[C@H](NC(=O)[C@H](Cc2ccccc2)NC(=O)[C@H](Cc2c[nH]c3ccccc23)NC(=O)[C@@H]2CCCN2C(=O)[C@@H](NC(=O)[C@@H](N)Cc2ccccc2)C(C)C)C(=O)N[C@@H](CCCCN)C(=O)N[C@@H](Cc2ccccc2)C(=O)N[C@H](CC(C)C)C(=O)N1)C(=O)N[C@@H](CC(C)C)C(N)=O [Peptide 11, FVPWF{KKFlK}RIL]    5

The measured viability at 24 h, 50 µM associated with CC[C@H](C)[C@H](NC(=O)[C@H](CCCNC(=N)N)NC(=O)[C@H]1CCCCNC(=N)NCCCC[C@H](NC(=O)[C@H](Cc2ccccc2)NC(=O)[C@H](Cc2c[nH]c3ccccc23)NC(=O)[C@@H]2CCCN2C(=O)[C@@H](NC(=O)[C@@H](N)Cc2ccccc2)C(C)C)C(=O)N[C@@H](CCCCN)C(=O)N[C@@H](Cc2ccccc2)C(=O)N[C@H](CC(C)C)C(=O)N1)C(=O)N[C@@H](CC(C)C)C(N)=O [Peptide 12, FVPWF{KKFlk}RIL] reads 2

Where do these numbers come from? They come from paper PMC12703733.
